# protocol: xn = mol fraction of the nth substance listed
# conditions used: 318.15 K, Wilhelmy plate method, x1 = 0.4
value type: surface tension liquid-gas (mN/m)
Return type: number; implicit unit mN/m.

Guide cases for surface tension liquid-gas, answers given:
compound: CCOC(=O)c1ccccc1O [ethyl 2-hydroxybenzoate] + CCO
quantitative result: 25.17
//
compound: CCOC(=O)CC(C)=O [ethyl 3-oxobutanoate] + CCO
quantitative result: 24.3
//
compound: CCOC(=O)CC(C)C [ethyl 3-methylbutanoate] + CCO
quantitative result: 21.03
//
compound: CC(=O)OCc1ccccc1 [benzyl ethanoate] + CCO
quantitative result: 25.66
//
compound: CCC(=O)OCc1ccccc1 [benzyl propanoate] + CCO
quantitative result: 25.28

Exam item: Which surface tension liquid-gas reading was recorded for the compound COC(=O)c1ccccc1 [methyl benzoate] + CCO ?
Marked response: 25.8

All figures here come from the NIST ThermoML archive (doi:10.1021/je060139a).
